Taken from the supplement of paper PMC6757056.

B1: library; a variant is named by its letters at N, in order (parent)
chain: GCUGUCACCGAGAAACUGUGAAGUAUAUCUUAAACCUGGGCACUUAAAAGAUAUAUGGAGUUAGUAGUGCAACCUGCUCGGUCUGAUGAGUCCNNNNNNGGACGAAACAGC

variants of: B1; assay: normalized RNA/DNA level without ligand (relative to sTRSVctl = 100) (log10 (% of sTRSVctl)); HEK293T; ligand: cyclic di-GMP (c-di-GMP-II aptamer); higher = less ribozyme self-cleavage, higher mRNA level; settings: reporter: mCherry (pCS4076), ligand present: no
variants and their reported normalized RNA/DNA level without ligand (log10)
Format: numeric value only, no unit, no commentary.

Examples from the recorded data:
variant_string	numeric_value
UAAGAC	1.65
GAUACC	1.76
UAGGCC	1.82
CUCACU	1.57
AACCCC	1.78
AAGUAA	1.45
UGAGGU	1.61
GCAACG	1.54

# input variant: UUGAAC ; wanted: its normalized RNA/DNA level without ligand (log10)
1.69

For GCCUUG then?
1.58

// same read-out, input: CCGGAC
1.62

Would you mind doing CACUAU as well?
1.52

Param item: CAUAUC
1.63

How about this variant: GGGAGU
1.67

Next: ACAUCA
1.68

Record: CGGAGA
1.32

Follow-up item: CGUUCG
1.81

Okay, and AUGCAA ?
1.52

Subsequent entry: CUUAUA
1.44

Can you check UCCUCG next?
1.8

Next entry: AAGAAA
1.38

What would you report for UGCGGG ?
1.81

# repeat for GAACGG
1.7

Could you do the same for AUUCUC , please?
1.81

Same question for CUGACG please.
1.8
